Source: patent US20260144882A1

- tgt: T1, human Nectin-4 extracellular antigen hNectin-4-His (human, UniProt Q96NY8 32-349)
- T1 construct: C-terminal 8xHis tag included
- T1 sequence: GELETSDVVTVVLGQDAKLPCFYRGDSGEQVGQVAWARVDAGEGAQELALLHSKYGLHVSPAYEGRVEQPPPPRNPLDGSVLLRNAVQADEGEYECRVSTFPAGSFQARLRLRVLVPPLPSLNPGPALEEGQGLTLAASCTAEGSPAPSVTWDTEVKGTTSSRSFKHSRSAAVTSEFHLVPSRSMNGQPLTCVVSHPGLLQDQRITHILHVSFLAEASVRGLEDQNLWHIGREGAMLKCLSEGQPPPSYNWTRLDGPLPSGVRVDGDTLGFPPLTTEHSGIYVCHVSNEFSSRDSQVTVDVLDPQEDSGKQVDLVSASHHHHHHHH
- test-method-notes: ELISA, coated hNectin-4-His
- Source text: The binding activity of the antibodies was detected by ELISA.
measurement-name: EC50 (ng/mL)
Respond with the bare value in ng/mL.

antibody 1G8-1C10 (antibody, human IgG1, kappa, V domains shown) VH: EVQLVESGGGLVQPGGSLRLSCAASGFNFSDYSMSWVRQAPGKGLEWVSRIKASSGGSDYADSVKGRFTISRDNSKNTLYLQMNSLRAEDTAVYYCARQTEDRSYGYDLDYWGQGTLVTVSS VL: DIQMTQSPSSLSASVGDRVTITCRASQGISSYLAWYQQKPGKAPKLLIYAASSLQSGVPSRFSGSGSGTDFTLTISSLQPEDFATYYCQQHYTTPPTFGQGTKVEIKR; 5
reference antibody ASG-22 (antibody, human IgG1, kappa, V domains shown) VH: EVQLVESGGGLVQPGGSLRLSCAASGFTFSSYNMNWVRQAPGKGLEWVSYISSSSSTIYYADSVKGRFTISRDNAKNSLSLQMNSLRDEDTAVYYCARAYYYGMDVWGQGTLVTVSS VL: DIQMTQSPSSVSASVGDRVTITCRASQGISGWLAWYQQKPGKAPKFLIYAASTLQSGVPSRFSGSGSGTDFTLTISSLQPEDFATYYCQQANSFPPTFGGGTKVEIKR; 19

Proceed to the following item.
**Query** // returns reported EC50 for input antibody 1F3-2B9 (antibody, human IgG1, kappa, V domains shown) VH: EVQLVESGGGLVQPGGSLRLSCAASGFNFDSYAMSWVRQAPGKGLEWVSGIKPHTDDIYYADSVKGRFTISRDNSKNTLYLQMNSLRAEDTAVYYCARAELLAFDVYTASDYWGQGTLVTVSS VL: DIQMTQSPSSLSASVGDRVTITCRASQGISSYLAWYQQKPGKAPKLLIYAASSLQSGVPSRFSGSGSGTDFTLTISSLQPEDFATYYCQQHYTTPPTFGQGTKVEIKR
**Result** 9
